Reference source for all entries: ChEMBL document CHEMBL1150567

The entries below are paired with their reported IC50.
tested on: Candida albicans; test: Antifungal activity against wild type Candida albicans SC5314 after 24 hrs by XTT assay; assay type: functional, organism-based; settings: SC5314, 24 h

// below: answered molecules
COc1ccccc1-c1coc2cc(O)c(C)c(O)c2c1=O :: 16 µg/mL
COc1ccc(-c2coc3cc(O)cc(O)c3c2=O)cc1 [BIOCHANIN] :: > 100 µg/mL
COc1cc2c(c(O)c1C)C(=O)[C@@]1(O)c3cccc(O)c3O[C@@H](OC)[C@@H]1O2 :: > 200 µg/mL

Shift focus to the following entry.
Provide IC50 value for the following molecule: O=c1c(-c2ccc(O)cc2)coc2cc(O)ccc12 [DAIDZEIN] > 100 µg/mL

###

The entries below are paired with their reported IC50.
system: Candida albicans; experiment: Antifungal activity against MDR knockout Candida albicans DSY1024 after 24 hrs by XTT assay; type: functional, organism-based; settings: DSY1024, 24 h
Report the value in µg/mL with no unit label.

COc1cc2oc3c(c(=O)c2c(O)c1C)-c1cccc(O)c1OC3O (stereo not drawn) [9-O-METHYL-4-HYDROXYBOERAVINONE B] :: 48
COc1ccccc1-c1coc2cc(O)c(C)c(O)c2c1=O :: 25
OC(Cn1cncn1)(Cn1cncn1)c1ccc(F)cc1F [FLUCONAZOLE] :: 6.7

Provide IC50 value for the following compound: C[C@@H]1[C@H](O)[C@@H](C)/C=C/C=C/C=C/C=C/C=C/C=C/C=C/[C@H](O[C@@H]2O[C@H](C)[C@@H](O)[C@H](N)[C@@H]2O)C[C@@H]2O[C@](O)(C[C@@H](O)C[C@@H](O)[C@H](O)CC[C@@H](O)C[C@@H](O)CC(=O)O[C@H]1C)C[C@H](O)[C@H]2C(=O)O [AMPHOTERICIN B] 0.19

###

The entries below are paired with their reported IC50.
tested on: Candida albicans; assay: Antifungal activity against wild type Candida albicans SC5314 after 24 hrs by XTT assay; format: functional, organism-based; settings: SC5314, 24 h
Report the value in µg/mL with no unit label.

OC(Cn1cncn1)(Cn1cncn1)c1ccc(F)cc1F [FLUCONAZOLE] :: 0.18

Shift focus to the following entry.
GET IC50 where system = Candida albicans and item = C[C@@H]1[C@H](O)[C@@H](C)/C=C/C=C/C=C/C=C/C=C/C=C/C=C/[C@H](O[C@@H]2O[C@H](C)[C@@H](O)[C@H](N)[C@@H]2O)C[C@@H]2O[C@](O)(C[C@@H](O)C[C@@H](O)[C@H](O)CC[C@@H](O)C[C@@H](O)CC(=O)O[C@H]1C)C[C@H](O)[C@H]2C(=O)O [AMPHOTERICIN B] 0.15

###

tested on: Candida albicans; assay: Antifungal activity against MDR knockout Candida albicans DSY1024 after 24 hrs by XTT assay; type: functional, organism-based; conditions: DSY1024, 24 h
Measured property: IC50

// below: answered compounds
COc1ccc(-c2coc3cc(O)cc(O)c3c2=O)cc1 :: > 100 µg/mL
COc1cc2c(c(O)c1C)C(=O)[C@@]1(O)c3cccc(O)c3O[C@@H](OC)[C@@H]1O2 :: > 200 µg/mL
O=c1c(-c2ccc(O)cc2)coc2cc(O)ccc12 :: > 100 µg/mL

Provide IC50 value for the following compound: "O=c1c(-c2ccc(O)cc2)coc2cc(O)cc(O)c12" > 100 µg/mL
